# Hemolytic activity (% ± SD) at 2 µM listing for each entry below
- System: human red blood cells
- Measurement Description: Cytotoxicity: hemolysis of human red blood cells
- Format: cell-based
No end group written: not given here.
Report the figure in % without appending any unit label.

Example results:
Substance: IKLRNVLKYLFRIDVIKEDIL-NH2 [Tc03]
Experimental Result: 0.04
//
Substance: KVLSKVHTLLKAVLAL-NH2 [At02]
Experimental Result: 0.03
//
Substance: GKILKYLLYLLRKYANLIIR-NH2 [Tc02]
Experimental Result: 0.00
//
Substance: FFYNVIKIYGNMAGRISK-NH2 [Cs03]
Experimental Result: 0.02
//
Substance: GAKLAKKQVRALGKFFSF-NH2 [At03]
Experimental Result: 0.00

// sample GSLHGFMYKYLKNMVLTLF-NH2 [At01] , its Hemolytic activity (% ± SD) at 2 µM was 0.00

// sample GSLHGFMYKYLKNMVLNLF-NH2 [Tc06] , its Hemolytic activity (% ± SD) at 2 µM was 0.00

// sample GLWSTIKQKGKEAAIAAAKAAGQAALGAL-NH2 [DS01, Dermaseptin DS01, reference compound] , its Hemolytic activity (% ± SD) at 2 µM was 0.19

// sample ANRLLEAYKMLLKFLGNLR-NH2 [Gr02] , its Hemolytic activity (% ± SD) at 2 µM was 0.38

// sample GSLHGFMYRYLKNMVLNLF-NH2 [Cs01] , its Hemolytic activity (% ± SD) at 2 µM was 0.05

====

- Measurement Description: Far-UV circular dichroism, helix percentage in buffer and with LUVs
- Type: physicochemical
- Condition Summary: 40 μM peptide + 2 mM DMPC LUVs (50 fold excess); pH 7.4 buffer; room temperature; from [θ]222 nm; * = β-sheet structure
Given measured %Hel DMPC, output 1 if it is greater than or equal to 20% and -1 if not.

Residue String: VALRLAKEVIKVQQGW [Tc01, IAP from Theobroma cacao, Embryo defective 1381 isoform 2]
Group: -1

Residue String: GIVLKDLFSEKLRRYKIVIG [Tc09, IAP from Theobroma cacao, NB-ARC domain-containing disease resistance protein, putative]
Group: -1

Residue String: LIKVVNHVQYNVTLHWHGIR [Tc07, IAP from Theobroma cacao, Laccase 17]
Group: -1

Residue String: RVLKDVESALRESVANWKIVIG [Tc04, IAP from Theobroma cacao, Purple acid phosphatase 3]
Group: -1

Does %Hel DMPC meet or surpass 20% for LLDKLKRTLLSIEAVLI [Tc11, IAP from Theobroma cacao, LRR and NB-ARC domains-containing disease resistance protein] ?
1

====

- Test system: human red blood cells
- Measurement Description: Cytotoxicity: hemolysis of human red blood cells
- Assay type: cell-based
No end group written: not given here.
Measure Name: Hemolytic activity (% ± SD) at 1 µM (%)
Report the figure in % without appending any unit label.

Example results:
Substance: GAKLAKKQVRALGKFFSF-NH2 [At03]
Readout Units: %
Experimental Result: 0.00
--
Substance: FFYNVIKIYGNMAGRISK-NH2 [Cs03]
Readout Units: %
Experimental Result: 0.00

// sample GSLHGFMYRYLKNMVLNLF-NH2 [Cs01] , its Hemolytic activity (% ± SD) at 1 µM was 0.10

// sample IVNHLVKLFDKGLNSIVNLR-NH2 [Tc05] , its Hemolytic activity (% ± SD) at 1 µM was 0.11
